Values compiled from paper PMC6147116.

target: human aromatase (Homo sapiens); construct: from tissue; host or cells: human term placenta, microsomal fraction; assay: Aromatase inhibition, in vitro radiosubstrate incubation (testosterone to E2 conversion), human placental microsomes; format: biochemical; conditions: read-out: Arom Rel.conv. ± SD
Sequence (P11511 whole entry): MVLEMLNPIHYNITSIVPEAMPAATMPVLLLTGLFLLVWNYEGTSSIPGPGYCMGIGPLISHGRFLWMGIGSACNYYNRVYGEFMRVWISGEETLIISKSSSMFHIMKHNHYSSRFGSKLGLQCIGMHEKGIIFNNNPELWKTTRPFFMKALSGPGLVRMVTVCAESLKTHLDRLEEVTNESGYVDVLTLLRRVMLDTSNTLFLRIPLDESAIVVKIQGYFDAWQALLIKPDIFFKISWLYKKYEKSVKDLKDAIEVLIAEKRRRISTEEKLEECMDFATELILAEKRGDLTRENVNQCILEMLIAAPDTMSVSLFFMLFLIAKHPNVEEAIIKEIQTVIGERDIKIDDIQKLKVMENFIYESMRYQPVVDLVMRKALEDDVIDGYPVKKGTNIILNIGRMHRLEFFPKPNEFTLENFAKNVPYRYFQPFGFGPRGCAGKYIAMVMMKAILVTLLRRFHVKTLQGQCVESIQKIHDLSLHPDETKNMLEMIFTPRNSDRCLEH

[
  {
    "molecule": "C[C@]12CC[C@@H]3c4ccc(O)c(Cl)c4CC[C@H]3[C@@H]1CCC2=O",
    "target entity": "human aromatase (Homo sapiens)",
    "remaining activity at 10 µM": "92%"
  },
  {
    "molecule": "C[C@@]12CC[C@@H]3c4cc(Cl)c(O)c(Cl)c4CC[C@H]3[C@@H]1CCC2=O [12c]",
    "target entity": "human aromatase (Homo sapiens)",
    "remaining activity at 10 µM": "101%"
  },
  {
    "molecule": "C[C@]12CC[C@@H]3c4cc(Cl)c(O)c(Cl)c4CC[C@H]3[C@@H]1CCC2=O",
    "target entity": "human aromatase (Homo sapiens)",
    "remaining activity at 10 µM": "82%"
  },
  {
    "molecule": "C[C@]12CCC[C@H]1[C@@H]1CCc3c(cc(Br)c(O)c3Br)[C@H]1CC2 [16b]",
    "target entity": "human aromatase (Homo sapiens)",
    "remaining activity at 10 µM": "82%"
  },
  {
    "molecule": "C[C@@]12CC[C@@H]3c4ccc(O)c(Cl)c4CC[C@H]3[C@@H]1CCC2=O [11c]",
    "target entity": "human aromatase (Homo sapiens)",
    "remaining activity at 10 µM": "98%"
  }
]
